Values from PubChem BioAssay (NCATS)

target: Ubiquitin carboxyl-terminal hydrolase 2 (Homo sapiens); assay: qHTS for Inhibitors of Ubiquitin-specific Protease USP2a Using CHOP2 as the Reporter: K484 Substrate (AID 652173); settings: USP2 cleavage of DiUb K48 IQF substrate, fluorescence; series mostly up to 57.5 µM;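 note: cleavage of internally quenched K48 di-ubiquitin substrate measured as rising fluorescence over time; nearly all actives have a fitted effect of over 70% in size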
Records with an inconclusive call do not appear. Active and inactive are the calls of the source. Calls come from the whole dose curve; as a rule, active = well fitted inhibition curve with a large enough effect; inconclusive = small, poorly fitted or top-dose-only effect; inactive = flat fitted curve, though single readings scatter.
Labels: t for active, f for inactive

{"compound": "COc1cc(C(=O)Nc2nc(-c3ccccc3)cs2)ccc1NS(=O)(=O)c1ccc(C)cc1", "assigned_category": "t"}
{"compound": "Cc1ccc(S(=O)(=O)n2cc(C(=O)Nc3nc(-c4ccccc4)cs3)c3ccccc32)cc1", "assigned_category": "t"}
{"compound": "Cc1ccc(S(=O)(=O)N(C)c2ccccc2C(=O)Nc2nc(-c3ccccc3)cs2)cc1", "assigned_category": "t"}
{"compound": "Cc1ccc(C(=O)[C@H]2CC[C@@H](C(=O)Nc3ccc(S(=O)(=O)Nc4nccs4)cc3)C2)cc1C", "assigned_category": "t"}
{"compound": "Cc1ccc(S(=O)(=O)Nc2cnccc2C(=O)Nc2nc(-c3ccc(-c4ccccc4)cc3)cs2)cc1", "assigned_category": "t"}
{"compound": "Cc1ccc(S(=O)(=O)Nc2ccc(C)cc2C(=O)Nc2nc(-c3ccccc3)cs2)cc1", "assigned_category": "t"}
{"compound": "Cc1ccc(S(=O)(=O)Nc2ccccc2C(=O)Nc2nccs2)cc1", "assigned_category": "t"}
{"compound": "N#Cc1ccc(NS(=O)(=O)c2ccc(NC(=O)Cc3ccc(F)c(Cl)c3)cc2)cc1", "assigned_category": "t"}
{"compound": "Cc1ccc(NS(=O)(=O)c2ccccc2C(=O)Nc2nc(-c3ccccc3)cs2)cc1", "assigned_category": "t"}
{"compound": "Clc1nc(CN2CCOCC2)nc2sc3c(c12)CCCC3", "assigned_category": "f"}
{"compound": "Cc1ccc(S(=O)(=O)Nc2cc(Br)ccc2C(=O)Nc2nc(-c3ccccc3)cs2)cc1", "assigned_category": "t"}
{"compound": "Cc1ccc(S(=O)(=O)Nc2ccccc2C(=O)Nc2ccc(-c3ccccc3)nc2)cc1", "assigned_category": "t"}
{"compound": "Cc1ccc(S(=O)(=O)Nc2ccccc2CNc2nc(-c3ccccc3)cs2)cc1", "assigned_category": "t"}
{"compound": "Cc1ccc(S(=O)(=O)Nc2ccc(C(=O)Nc3ncc(-c4ccccc4)s3)cc2)cc1", "assigned_category": "t"}
{"compound": "CC1CC1C(=O)Nc1ccc([S+](=O)([O-])Nc2nccs2)cc1 (stereo not given)", "assigned_category": "f"}

* * *

assay: qHTS for Activators of p53 Stress Response Pathway screened against the NCATS CANVASS Library (AID 1347388); settings: p53RE-bla HCT-116, beta-lactamase reporter, 16 h; series mostly up to 46.1 µM; note: potency is the fitted concentration of half-maximal effect
Inconclusive results are not listed. Active and inactive are the calls of the source. Calls come from the whole dose curve; as a rule, active = well fitted activation curve with a large enough effect; inconclusive = small, poorly fitted or top-dose-only effect; inactive = flat fitted curve, though single readings scatter.
observed_property: Potency

{"mol_smiles": "CC(C)=CCC[C@]12c3cc4c(cc3CC[C@@]1(C)[C@H](C)CC[C@@H]2O)[nH]c1ccccc14", "observed_property": "Potency", "result": "inactive"}
{"mol_smiles": "C/C=C/c1cc2c(c(=O)o1)C(=O)[C@@H](O)[C@H](C)O2", "observed_property": "Potency", "result": "37.1 µM (active)"}
{"mol_smiles": "C[C@@]12CCC[C@@](C)(C(=O)OP(=O)(O)OC[C@H]3O[C@@H](n4cnc5c(N)ncnc54)[C@H](O)[C@@H]3O)[C@H]1C[C@@H](O)[C@@]13C[C@@H](CC[C@@H]21)[C@](C)(O)C3", "observed_property": "Potency", "result": "inactive"}

* * *

biological target: Ubiquitin carboxyl-terminal hydrolase 2 (Homo sapiens); assay: qHTS for Inhibitors of Ubiquitin-specific Protease USP2a Using CHOP2 as the Reporter: K484 Substrate (AID 652173); settings: USP2 cleavage of DiUb K48 IQF substrate, fluorescence; series mostly up to 57.5 µM;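 note: cleavage of internally quenched K48 di-ubiquitin substrate measured as rising fluorescence over time; nearly all actives have a fitted effect of over 70% in size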
Inconclusive results are not listed. Active and inactive are the calls of the source. Calls come from the whole dose curve; as a rule, active = well fitted inhibition curve with a large enough effect; inconclusive = small, poorly fitted or top-dose-only effect; inactive = flat fitted curve, though single readings scatter.
Labels: active, inactive

{"mol_smiles": "Cc1ccc(S(=O)(=O)Nc2cc(C(=O)Nc3nc(-c4ccccc4)cs3)ccn2)cc1", "assigned_category": "active"}
{"mol_smiles": "Cc1ccc(-c2cc(C(=O)Nc3ccc(S(N)(=O)=O)cc3)c3ccccc3n2)cc1C", "assigned_category": "active"}
{"mol_smiles": "O=C(Nc1ccc([S+](=O)([O-])Nc2nccs2)cc1)c1ncn[nH]1", "assigned_category": "inactive"}
{"mol_smiles": "Cc1ccc([S+](=O)([O-])n2cc(Cc3ccc(-c4ccccc4)cc3)c3ccccc32)cc1", "assigned_category": "inactive"}
{"mol_smiles": "O=C(Cc1ccc2ccccc2c1)Nc1ccc(S(=O)(=O)Nc2nccs2)cc1", "assigned_category": "active"}
{"mol_smiles": "CC(C)Oc1ccccc1C(=O)Nc1nc(-c2ccccc2)cs1", "assigned_category": "active"}

* * *

biological target: Dual specificity protein kinase CLK4 (Homo sapiens); assay: qHTS Assay for Inhibitors of CDC-like Kinase 4 (Kinase-Glo Assay) (AID 1770); conditions: recombinant Clk4, Kinase-Glo ATP depletion luminescence; series mostly up to 66.7 µM; note: nearly all actives have a fitted effect of over 65% in size
Records with an inconclusive call do not appear. Activity calls are given as the source filed them. Calls come from the whole dose curve; as a rule, active = well fitted inhibition curve with a large enough effect; inconclusive = small, poorly fitted or top-dose-only effect; inactive = flat fitted curve, though single readings scatter.
Labels: Y = active, N = inactive

{"mol_smiles": "CS(=O)(=O)Nc1cccc(-c2ccc3ncnc(Nc4ccccc4)c3c2)c1", "assigned_category": "Y"}
{"mol_smiles": "CN(C)c1ncc2nc(-c3ccccc3)c(=O)n(-c3ccccc3)c2n1", "assigned_category": "N"}
{"mol_smiles": "Cn1cc(-c2nc3cncnc3n(-c3ccccc3)c2=O)c2ccccc21", "assigned_category": "N"}
{"mol_smiles": "Fc1ccc(Nc2ccnc(-c3ccccc3C(F)(F)F)n2)cc1", "assigned_category": "N"}
{"mol_smiles": "FC(F)(F)c1ccccc1-c1nccc(N2CCNCC2)n1", "assigned_category": "N"}
{"mol_smiles": "Cc1nc2cnc(N3CCN(C)CC3)nc2n(CCC#N)c1=O", "assigned_category": "N"}
{"mol_smiles": "CCNc1ncc2nc(-c3ccccc3)c(=O)n(C[C@H]3CCCO3)c2n1", "assigned_category": "N"}
{"mol_smiles": "O=c1c(-c2ccc(F)cc2)nc2cnc(Oc3ccccc3)nc2n1Cc1cccs1", "assigned_category": "N"}
{"mol_smiles": "Cc1nc2cnc(N3CCOCC3)nc2n(C)c1=O", "assigned_category": "N"}
{"mol_smiles": "CCNc1ncc2ncc(=O)n(CCOC)c2n1", "assigned_category": "Y"}
{"mol_smiles": "CN(C)c1ncc2nc(-c3ccccc3)c(=O)n(C[C@H]3CCCO3)c2n1", "assigned_category": "N"}
{"mol_smiles": "COCCNc1cc(-c2ccccc2C)ncn1", "assigned_category": "Y"}
{"mol_smiles": "COc1ccc(Oc2ncc3nc(-c4ccc(OC)cc4)c(=O)n(C4CC4)c3n2)cc1", "assigned_category": "N"}
{"mol_smiles": "COCCn1c(=O)c(-c2ccccc2)nc2cnc(Oc3ccc(OC)cc3)nc21", "assigned_category": "N"}

* * *

experiment: J3T Cancer Cell Toxicity qHTS against the NCATS CANVASS Library (AID 1347371); conditions: J3T dog glioma viability, ATP luminescence, 72 h; series mostly up to 46.1 µM
Inconclusive results are not listed. Activity calls are given as the source filed them. Calls follow the shape of the dose curve; as a rule, active = well fitted cell-killing curve with a large enough effect; inconclusive = small, poorly fitted or top-dose-only effect; inactive = flat fitted curve, though single readings scatter.
Labels: active, inactive

{"compound": "C[C@H]1C=C[C@H]2CCCC[C@@H]2[C@H]1C(=O)[C@H]1CC2=C(C(=O)O)CCN2C1=O", "assigned_category": "inactive"}
{"compound": "CN1CC[C@@]2([C@@]34CCN(C)[C@@H]3Nc3ccccc34)c3ccccc3N[C@@H]12", "assigned_category": "inactive"}
{"compound": "CN1CC[C@]2(c3cccc4c3N[C@H]3N(C)CC[C@@]43[C@]34CCN(C)[C@H]3Nc3ccccc34)c3ccccc3N[C@H]12", "assigned_category": "active"}
{"compound": "CCC(=O)N[C@@H](C[C@H](C)C(Cl)(Cl)Cl)C(=O)N1C(=O)C=C(OC)[C@@H]1C[C@H](C)CCl", "assigned_category": "inactive"}
{"compound": "COc1ccc([C@@H]2c3cc4c(cc3C(=O)C(C)C2C)OCO4)cc1OC (stereo partly specified)", "assigned_category": "inactive"}
{"compound": "C[C@@]12CCC[C@@](C)(C(=O)O)[C@H]1CC[C@@]13C[C@@H](CC[C@H]12)[C@](C)(O)C3", "assigned_category": "inactive"}

* * *

experiment: Vero-766 cells viability qHTS against the NCATS CANVASS Library: Counterscreen for Zika virus inhibition assay (AID 1347394); details: Vero 766 viability, CellTiter-Glo luminescence, 72 h; series mostly up to 46.1 µM; note: nearly all actives have a fitted effect of over 60% in size
Records with an inconclusive call do not appear. Calls of active or inactive are those of the source. Calls follow the shape of the dose curve; as a rule, active = well fitted cell-killing curve with a large enough effect; inconclusive = small, poorly fitted or top-dose-only effect; inactive = flat fitted curve, though single readings scatter.
Labels: y (active), n (inactive)

{"compound": "CO[C@@H]1[C@H](O)[C@@H](C)O[C@@H](OC[C@@H]2C(C)OC(=O)/C=C/[C@H](C)C(O[C@@H]3O[C@H](C)CC4(OC(=O)O[C@@H]4C)C3O)[C@@H](C)CC(C)C(=O)/C=C/[C@H]3OC23)[C@@H]1OC (stereo partly drawn)", "assigned_category": "n"}
{"compound": "C=C1C[C@]23C=CC(=O)[C@@](C)(CCCC(C)C(=O)N[C@@H](CO)C(=O)O)[C@@H]2C[C@@H]1CC3 (stereo partly drawn)", "assigned_category": "n"}
{"compound": "COc1c(O)cc2c(c1O)C(=O)c1c(coc1C)C2=O", "assigned_category": "n"}
{"compound": "C[C@@]12CCC[C@@](C)(C(=O)O)[C@H]1CC[C@@]13C[C@@H](CC[C@H]12)[C@](C)(O)C3", "assigned_category": "n"}
{"compound": "COc1cc2c(cc1OC)[C@@H](c1ccc3c(c1)OCO3)C(C)C(C)C2=O (stereo partly drawn)", "assigned_category": "n"}
{"compound": "CC[C@H]1[C@H](C)[C@H](c2cc(OC)c(OC)cc2OC)[C@@H](C)[C@H](c2cc(OC)c(OC)cc2OC)[C@@]12C=C(OC)C(=O)C=C2OC", "assigned_category": "n"}
{"compound": "C[C@]12CCC[C@](C)(C(=O)O)[C@@H]1CC[C@@]1(C)c3cocc3CC[C@H]21", "assigned_category": "n"}
{"compound": "C/C(=C\\[C@H](C)C(=O)/C=C/CC1CC(=O)NC(=O)C1)[C@@H]1OC(=O)CCCC/C=C/[C@H](O)[C@@H](O)[C@@H]1C", "assigned_category": "n"}
{"compound": "O=c1cc(-c2ccc(O)cc2)oc2cc(O)c([C@@H]3OC(CO)[C@H](O)[C@@H](O)[C@H]3O)c(O)c12 (stereo partly drawn)", "assigned_category": "n"}
{"compound": "O=C1CC(c2ccc(O)cc2)Oc2cc(O)ccc21 (stereo not drawn)", "assigned_category": "n"}
{"compound": "CC[C@H](O)CCCCC[C@@H]1NC(=O)[C@H]2CCCCN2C(=O)[C@H]([C@H](C)CC)NC(=O)[C@H](Cc2cn(OC)c3ccccc23)NC1=O", "assigned_category": "y"}
{"compound": "C=C[C@](Cl)(CBr)CCC=C(C)C", "assigned_category": "n"}
{"compound": "C[n+]1cc2cc(C(N)=O)[nH]c3c(=N)c(Cl)c(N)c1c23", "assigned_category": "n"}
{"compound": "CC(CCC[C@]1(C)C(=O)C=C[C@@]23C[C@]4(C)O[C@@H](C[C@@H]4[C@H]2O)C31)C(=O)O (stereo partly drawn)", "assigned_category": "n"}
{"compound": "Cc1cc(O)cc2c1C(=O)c1c(O)cc(O)cc1C2=O", "assigned_category": "n"}
{"compound": "CCCc1c2c([nH]c(=O)c1C)C(=O)c1[nH]c(=O)c(C)c(CCC)c1C2=O", "assigned_category": "n"}
{"compound": "CO[C@H]1/C=C/CCCCC(=O)O[C@@H](/C(C)=C/[C@H](C)C(=O)C[C@H](O)CC2CC(=O)NC(=O)C2)[C@@H](C)C1", "assigned_category": "n"}
{"compound": "CN1CC[C@@]2([C@@]34CCN(C)[C@@H]3Nc3ccccc34)c3ccccc3N[C@@H]12", "assigned_category": "n"}
{"compound": "C[C@H]1C=C[C@H]2CCCC[C@@H]2[C@H]1C(=O)[C@H]1CC2=C(C(=O)O)CCN2C1=O", "assigned_category": "n"}
{"compound": "C=CC(C)(C)C(=O)[C@@H](C)[C@@H]1CC[C@@](C)(C=C)O1", "assigned_category": "n"}
{"compound": "C/C1=C/[C@@H](C)[C@H](O)[C@@H](O)/C=C/CC/C=C/C(=O)O[C@@H]1[C@H](C)C(=O)CCCC1CC(=O)NC(=O)C1", "assigned_category": "n"}
{"compound": "CO[C@@H](C[C@@H](C)[C@@H](O)/C=C/C=C/CNC(=O)C(C)(C)[C@H](O)\\C(C)=C/C=C\\C=C\\Cc1cnco1)[C@]1(O)[C@@H](C)C(=O)N(C)[C@@]12COC2=O", "assigned_category": "n"}
{"compound": "C/C=C/c1cc2c(c(=O)o1)C(=O)[C@@H](O)[C@H](C)O2", "assigned_category": "n"}
